# assay target: pY641-STAT6 in PBMC (Homo sapiens, UniProt P42226)
# Construct: Cryopreserved Peripheral Blood Mononuclear Cells (PBMC) are from AllCells; host or cells: cryopreserved PBMC
# Sequence (P42226 whole entry): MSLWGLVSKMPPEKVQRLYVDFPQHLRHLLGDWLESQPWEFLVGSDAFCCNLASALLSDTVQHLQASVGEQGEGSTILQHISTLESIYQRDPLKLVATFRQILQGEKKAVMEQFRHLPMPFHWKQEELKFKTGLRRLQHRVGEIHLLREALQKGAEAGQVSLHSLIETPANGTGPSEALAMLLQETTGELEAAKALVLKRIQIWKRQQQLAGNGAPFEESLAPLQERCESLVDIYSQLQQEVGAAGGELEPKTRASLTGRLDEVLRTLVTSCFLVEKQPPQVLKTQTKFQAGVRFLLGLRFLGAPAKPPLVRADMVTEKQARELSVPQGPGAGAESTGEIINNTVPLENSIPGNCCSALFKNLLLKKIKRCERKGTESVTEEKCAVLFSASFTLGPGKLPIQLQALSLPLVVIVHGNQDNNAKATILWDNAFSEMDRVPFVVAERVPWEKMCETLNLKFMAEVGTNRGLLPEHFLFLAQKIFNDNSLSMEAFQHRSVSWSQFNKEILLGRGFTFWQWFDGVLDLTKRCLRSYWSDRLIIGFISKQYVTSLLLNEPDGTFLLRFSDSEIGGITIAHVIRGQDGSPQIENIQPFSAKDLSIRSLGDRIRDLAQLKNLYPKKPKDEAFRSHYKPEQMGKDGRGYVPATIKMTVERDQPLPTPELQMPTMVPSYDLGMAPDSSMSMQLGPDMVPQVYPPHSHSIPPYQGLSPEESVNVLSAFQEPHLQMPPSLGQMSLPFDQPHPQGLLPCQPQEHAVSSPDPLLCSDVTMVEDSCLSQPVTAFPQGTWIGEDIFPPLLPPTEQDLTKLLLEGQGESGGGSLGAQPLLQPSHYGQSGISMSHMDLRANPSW
# method summary: MSD-pSTAT-PBMC Assay (pSTAT6, IL-4 stimulated)
# Assay type: cell-based
# condition summary: STAT6, PBMC, compound 3 hrs, then 1 ng/mL IL-4 for 10 min; Table 115
readout type: IC50

# molecule, assay target, IC50
rows = [
    ("CCCOC(=O)[C@H](C)NP(=O)(Oc1c(C)cccc1C)[C@H](F)c1ccc2sc(C(=O)N[C@H]3CCC[C@H]4CC[C@@H](C(=O)N5C[C@@H](c6cccnc6)CC56CC6)N4C3=O)cc2c1 (some centres unmarked) [Compound 359]", "pY641-STAT6 in PBMC (Homo sapiens, UniProt P42226)", "< 100 nM"),
]

Now look at this entry.
query: What value of IC50 has been reported for the following molecule? CCCOC(=O)[C@H](C)NP(=O)(Oc1ccccc1)[C@@H](F)c1ccc2sc(C(=O)N[C@H]3CCCC[C@H]4CC[C@@H](C(=O)N5C[C@H](c6cncc(Cl)c6)[C@@H](C#N)C56CC6)N4C3=O)cc2c1 (single isomer, unassigned) [Compound 370]
result: < 100 nM

----------
# assay target: Recombinant STAT6 protein (STAT6 (W123-T658)) (Homo sapiens, UniProt P42226)
# Construct: Recombinant STAT6 protein (STAT6 (W123-T658))
# Sequence (P42226 123-658): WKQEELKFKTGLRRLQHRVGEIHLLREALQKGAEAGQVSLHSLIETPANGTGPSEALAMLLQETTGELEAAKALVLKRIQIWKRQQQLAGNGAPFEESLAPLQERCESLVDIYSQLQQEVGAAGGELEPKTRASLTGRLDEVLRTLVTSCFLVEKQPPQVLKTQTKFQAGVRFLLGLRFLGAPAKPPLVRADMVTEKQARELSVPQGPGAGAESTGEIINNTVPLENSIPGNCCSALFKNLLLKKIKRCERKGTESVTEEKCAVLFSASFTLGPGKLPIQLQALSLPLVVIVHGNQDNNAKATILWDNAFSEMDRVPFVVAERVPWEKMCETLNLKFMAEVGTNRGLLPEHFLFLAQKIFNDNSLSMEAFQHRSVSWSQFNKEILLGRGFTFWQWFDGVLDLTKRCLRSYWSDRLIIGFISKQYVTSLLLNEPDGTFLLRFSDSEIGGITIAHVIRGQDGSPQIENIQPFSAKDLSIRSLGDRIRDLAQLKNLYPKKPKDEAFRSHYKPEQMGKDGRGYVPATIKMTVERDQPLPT
# method summary: STAT6 Fluorescence Polarization (FP) Assay
# Type: binding
# condition summary: STAT6 250 nM, probe 5-FAM-Ap[…]-NH2 2 nM, 45-minute incubation; read-out: STAT6 (FP assay IC50)
readout type: IC50

query: What IC50 value was documented for this molecule, O=C(N[C@H]1CC[C@H](O)C[C@H]2CC[C@@H](C(=O)N3CC(n4ccnc4)C3)N2C1=O)c1cc2cc(C(F)(F)P(=O)(O)O)ccc2s1 ?
result: 0.3 to 3 µM

query: Please report the recorded IC50 for Cn1c(C2CN(C(=O)[C@@H]3CC[C@@H]4CCCC[C@H](NC(=O)c5cc6cc(C(F)(F)P(=O)(O)O)ccc6s5)C(=O)N43)C2)nc2ccccc21 .
result: 0.3 to 3 µM

query: Requested read-out: IC50. Entry: N=S1(=O)CC2(CN(C(=O)[C@@H]3CC[C@@H]4CCCC[C@H](NC(=O)c5cc6cc(C(F)(F)P(=O)(O)O)ccc6s5)C(=O)N43)C2)C1
result: 3 to 30 µM

query: Name the recorded IC50 for N#C[C@@H]1CN(C(=O)[C@@H]2CC[C@@H]3CCCC[C@H](NC(=O)c4cc5cc([C@H](F)P(=O)(O)O)ccc5s4)C(=O)N32)C[C@H]1c1ccccc1 (single isomer, unassigned) .
result: ≤ 0.3 µM

query: For the molecule O=C(N[C@H]1CCCC[C@H]2CC[C@@H](C(=O)N3CCc4c(cc[nH]c4=O)C3)N2C1=O)c1cc2cc(C(F)(F)P(=O)(O)O)ccc2s1 , what IC50 is on record?
result: 3 to 30 µM

query: Item under review: CCO[C@@H]1CC[C@H](NC(=O)c2cc3cc(C(F)(F)P(=O)(O)O)ccc3s2)C(=O)N2[C@H](CC[C@H]2C(=O)N2CC(C(=O)N3CCOCC3)C2)C1 . Reported IC50?
result: 3 to 30 µM

query: Suppose we examine the molecule CC(=O)N1C[C@H](NC(=O)[C@@H]2CC[C@@H]3CCC[C@H](NC(=O)c4cc5cc(C(F)(F)P(=O)(O)O)ccc5s4)C(=O)N32)[C@@H](O)C1 ; what IC50 value has been reported?
result: 0.3 to 3 µM

query: Given the entry O=C(N[C@H]1CCCC[C@H]2CC[C@@H](C(=O)N3CC(NC(=O)C4CC4)(c4ccccn4)C3)N2C1=O)c1cc2cc(C(F)(F)P(=O)(O)O)ccc2s1 , report its measured IC50.
result: 3 to 30 µM

query: Item CC(=O)N1C[C@H](NC(=O)[C@@H]2CC[C@@H]3CCCC[C@H](NC(=O)c4cc5cc(C(F)(F)P(=O)(O)O)ccc5s4)C(=O)N32)[C@@H](O)C1 has what recorded IC50?
result: 0.3 to 3 µM

query: What does the data say about its IC50? Entry: O=C(/C=C/c1ccc(C(F)(F)P(=O)(O)O)cc1)N[C@H]1CCC[C@H]2CC[C@@H](C(=O)Nc3ccc(-c4ccccc4)cc3)N2C1=O
result: 3 to 30 µM

query: Look up IC50: O=C(N[C@H]1CCC[C@H]2CC[C@@H](C(=O)N3CC(C4CCOCC4)C3)N2C1=O)c1cc2cc(C(F)(F)P(=O)(O)O)ccc2s1
result: 3 to 30 µM

query: // query IC50 value for entry C[C@]1(NC(=O)c2cc3cc(C(F)(F)P(=O)(O)O)ccc3s2)CCCC[C@H]2CC[C@@H](C(=O)N3CC(c4ccccn4)C3)N2C1=O
result: 3 to 30 µM

query: Give the measured IC50 of COc1cccc([C@H]2CN(C(=O)[C@@H]3CC[C@@H]4CCCC[C@H](NC(=O)c5cc6cc(C(F)(F)P(=O)(O)O)ccc6s5)C(=O)N43)C[C@@H]2C#N)n1 (racemic) .
result: ≤ 0.3 µM

query: Reported IC50 for O=C(N[C@H]1CCCC[C@H]2CC[C@@H](C(=O)N3CC4(CN(C(=O)Cc5ccccc5)C4)C3)N2C1=O)c1cc2cc(C(F)(F)P(=O)(O)O)ccc2s1 : what is it?
result: ≤ 0.3 µM

query: Record request: IC50 value, item O=C(N[C@H]1C[C@H](OCc2ccccc2)CC[C@H]2CC[C@@H](C(=O)N3CC(C(=O)N4CCOCC4)C3)N2C1=O)c1cc2cc(C(F)(F)P(=O)(O)O)ccc2s1
result: 3 to 30 µM

query: Which measured IC50 value corresponds to O=C(N[C@H]1CCC2(CC2)C[C@H]2CC[C@@H](C(=O)N3CC(C(=O)N4CCOCC4)C3)N2C1=O)c1cc2cc(C(F)(F)P(=O)(O)O)ccc2s1 ?
result: 3 to 30 µM

query: Could you tell me which IC50 is on file for O=C(N[C@H]1CCCC[C@H]2CC[C@@H](C(=O)N3CC[C@@H](c4ccccc4)C3)N2C1=O)c1cc2cc(C(F)(F)P(=O)(O)O)ccc2s1 ?
result: ≤ 0.3 µM

query: Which measured IC50 value corresponds to CC(C)(O)c1cn(C2CN(C(=O)[C@@H]3CC[C@@H]4CCCC[C@H](NC(=O)c5cc6cc(C(F)(F)P(=O)(O)O)ccc6s5)C(=O)N43)C2)nn1 ?
result: 3 to 30 µM
